These entries and their values trace back to patent US20180057604A1.

- TEST TARGET: T1, human TfR extracellular domain with N-terminal His tag (human, UniProt P02786 89-760)
- T1 construct: Biotinylated in some assays; also called huTfR; HuTfR
- T1 sequence (P02786 89-760 G142S): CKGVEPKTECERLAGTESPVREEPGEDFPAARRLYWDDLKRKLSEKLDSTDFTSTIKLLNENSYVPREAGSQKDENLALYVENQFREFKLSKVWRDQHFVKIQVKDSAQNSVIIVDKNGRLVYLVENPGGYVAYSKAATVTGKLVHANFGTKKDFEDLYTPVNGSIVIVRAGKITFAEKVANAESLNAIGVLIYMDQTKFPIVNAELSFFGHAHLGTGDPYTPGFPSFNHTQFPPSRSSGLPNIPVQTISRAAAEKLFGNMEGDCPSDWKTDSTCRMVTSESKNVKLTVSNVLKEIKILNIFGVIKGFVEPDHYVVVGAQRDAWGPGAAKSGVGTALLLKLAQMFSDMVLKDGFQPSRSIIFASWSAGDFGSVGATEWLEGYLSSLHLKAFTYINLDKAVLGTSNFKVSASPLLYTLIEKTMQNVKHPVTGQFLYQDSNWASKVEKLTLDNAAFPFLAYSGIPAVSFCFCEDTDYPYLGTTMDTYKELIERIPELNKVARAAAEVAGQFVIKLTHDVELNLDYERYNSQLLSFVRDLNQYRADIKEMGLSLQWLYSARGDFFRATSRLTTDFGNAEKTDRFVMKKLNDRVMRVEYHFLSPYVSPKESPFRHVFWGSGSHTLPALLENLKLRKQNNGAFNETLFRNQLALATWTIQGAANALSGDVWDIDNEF
- EXPERIMENT DESCRIPTION: ELISA, TfR-coated plate, IgG in culture supernatant;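 note: human or cynomolgus TfR coated at 2 µg/mL, supernatant IgG titrated in 1:5 steps for 1 h, bound antibody read with HRP anti-human Fcγ and TMB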
REPORTED METRIC: EC50 (ng/mL)
Numeric answer only, unit ng/mL assumed.

| BINDER | EC50, ng/mL |
| --- | --- |
| hu15G11.v5 IgG Ala variant N28A (HVR-L1) (antibody, V domains shown, IgG in cell culture supernatant) VH: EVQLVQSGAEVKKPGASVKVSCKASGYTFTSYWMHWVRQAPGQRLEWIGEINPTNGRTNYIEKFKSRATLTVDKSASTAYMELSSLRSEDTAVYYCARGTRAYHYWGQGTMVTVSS VL: DIQMTQSPSSLSASVGDRVTITCRASDALYSNLAWYQQKPGKSPKLLVYDATNLADGVPSRFSGSGSGTDYTLTISSLQPEDFATYYCQHFWGTPLTFGQGTKVEIK | 0.2 |

[in] What value of EC50 has been recorded for this entry: hu15G11.v5 IgG Ala variant G49A (HVR-H2) (antibody, name in Kabat numbering, V domains shown, IgG in cell culture supernatant) VH: EVQLVQSGAEVKKPGASVKVSCKASGYTFTSYWMHWVRQAPGQRLEWIAEINPTNGRTNYIEKFKSRATLTVDKSASTAYMELSSLRSEDTAVYYCARGTRAYHYWGQGTMVTVSS VL: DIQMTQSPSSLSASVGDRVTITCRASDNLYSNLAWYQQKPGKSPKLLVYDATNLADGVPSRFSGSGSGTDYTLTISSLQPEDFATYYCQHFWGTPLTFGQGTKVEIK
[out] 0.3
